protocol: self-splicing fitness, log relative to wild type (ln ratio); higher = more splicing; Tetrahymena group I intron in knt gene, E. coli kanamycin selection, DiMSum; sequences stand for … in CUCUCU…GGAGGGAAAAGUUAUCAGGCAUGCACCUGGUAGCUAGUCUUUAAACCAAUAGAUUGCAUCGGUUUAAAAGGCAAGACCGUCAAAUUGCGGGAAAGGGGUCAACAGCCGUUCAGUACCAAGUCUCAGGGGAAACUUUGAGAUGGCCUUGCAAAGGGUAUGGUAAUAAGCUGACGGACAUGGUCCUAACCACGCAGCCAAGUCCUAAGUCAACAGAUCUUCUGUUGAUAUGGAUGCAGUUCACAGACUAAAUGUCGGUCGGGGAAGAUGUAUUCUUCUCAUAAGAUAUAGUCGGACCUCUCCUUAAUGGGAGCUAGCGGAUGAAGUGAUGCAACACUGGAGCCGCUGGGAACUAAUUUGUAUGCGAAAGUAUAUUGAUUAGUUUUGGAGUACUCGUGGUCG;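 further: selection with 25 µg/mL kanamycin versus none on LB agar overnight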
test.settings: 30 °C
Decision: self-splicing fitness (ln) compared against -2; not below it gives 1, below it gives 0.

Observe how each entry below is paired with its result.
biosequence | group
CUGAAGCAAUAUUACGCGUG | 1
AAUCAGCAAUAUUACGUGCG | 1

Moving on to another sequence below.
Asked: Has GGCUAGCAAUAUUACGGAGA a recorded self-splicing fitness (ln) greater than or equal to -2?
Given back: 0
